tested on: Vero E6; test: cell viability relative to DMSO; higher = less toxic; conditions: 72 h; 100 nM
Recorded cell viability values for a group of compounds are listed next.
Give just the numeric value; % need not be written.

* Clc1ccc(Cn2c(CN3CCCC3)nc3ccccc32)cc1 [clemizole] | 103

Exercise: Read the entry COc1cc2c(cc1O)C(CCc1ccc(Cl)cc1)N(C)CC2 (configuration not stated) [Ro-04-5595] and write its reported cell viability.
Solution: 101

Exercise: Read the entry O=C(O)C(Cl)Cl [dichloroacetate] and write its reported cell viability.
Solution: 96.1

Exercise: Read the entry CN(C)/N=N/c1[nH]cnc1C(N)=O [dacarbazine] and write its reported cell viability.
Solution: 94.4

Exercise: Read the entry CCCCC/C=C\C=C\CCCCCCCCC(=O)O [trans-10,cis-12-conjugated-linoleic-acid] and write its reported cell viability.
Solution: 102

Exercise: Read the entry Nc1nc(=O)n([C@H]2C[C@H](O)[C@@H](CO)O2)cc1F [fdcyd] and write its reported cell viability.
Solution: 90.7

Exercise: Read the entry O[C@@](Cc1nc(CC2(C(F)(F)F)CC2)c[nH]1)(c1ccc(-n2cccn2)cc1)C(F)(F)F [MK-5046] and write its reported cell viability.
Solution: 98.5

Exercise: Read the entry CC(=O)Nc1ccc(Cc2ccc(NC(C)=O)cc2)cc1 [FH1] and write its reported cell viability.
Solution: 96.8

Exercise: Read the entry CCC1(c2ccc(N)cc2)CCC(=O)NC1=O (configuration not stated) [aminoglutethimide] and write its reported cell viability.
Solution: 91.3

Exercise: Read the entry CC(C)OC(=O)c1cc2c(OC[C@@H](O)CNC(C)(C)C)cccc2[nH]1 and write its reported cell viability.
Solution: 99.6

Origin of the recorded values: the supplement of paper PMC13380429
